# Test system: K4 kissing-loop RNA reporter
# assay.info: apparent KD of K4 kissing-loop reporter; higher = weaker reporter binding
# experimental.setup: Eterna round: R107; input ligand: none
Some sequences, each annotated with its measured apparent KD of K4 kissing-loop reporter.
// note: answer is a bare numeric in nM

{"seq": "ACGUGCCCAGUGAUGUUGGAUAAAUAUGAAGGAGCGUGCGAAAGCACAGGUAGGUCGCAUAAUAGCACGAGCCACGAAAGUGGCA [#SwitchBubble 7 #K4Early #Sliding]", "unit.annotation": "nM", "apparent KD of K4 kissing-loop reporter": 181}
{"seq": "UGUAUGUGAUGUGAUACCAGUGAAGAGCCAGUGAUGUUGGUAGAACUGGUAUAUAAAUAACACCCUUGGCAGCACAAUCACGUAC [whbob_Ex_Theo_B_sa99]", "unit.annotation": "nM", "apparent KD of K4 kissing-loop reporter": 286}

As a next step, examine the sequence that follows.
INPUT: Return the recorded apparent KD of K4 kissing-loop reporter value; entry: CGCAGUGAUGUUGCGAGUUCAUUCAGGGAAGGAGCGCCACAGAUGGCAGGUAGGUCGCCCACGCAGUGAUGUUGUGUAUUCGGGU [Exclusion Arginine A GF 2]
OUTPUT: 165

###

# System: K4 kissing-loop RNA reporter;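 also: bound reporter read as fluorescence of individual clusters on recovered sequencing chips by microscopy, with normalized cluster intensities fitted with a binding model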
# assay.info: apparent KD of K4 kissing-loop reporter; higher = weaker reporter binding
# experimental.setup: Eterna round: R107; input ligand: theophylline 20 uM
Hi, to clarify the labels: label 1 covers apparent KD of K4 kissing-loop reporter from 300 nM upward, label 0 covers anything below 300 nM.

Take a look at these entries with their results.
{"seq": "AGCCGUCUAAGUGAUGUUUAGGCAUGUCAGCGAGGACCGGUACGGCCGCCACUCGUGCUAUUGAGAUUUCGGGUAGCCCACGUAG [theeternabot_sameState_KL_Trp_A_20]", "assigned.category": "label 0"}
{"seq": "AGCCGAAAGGCGAGUGCUGUCACUCCGGAAGGAGCGCUCGAAAGAGCAGGUAGGUCGCCGGAGUGAUGUUCCGGUGCAGCACUCA [Omei KL Arginine A Exc B v5]", "assigned.category": "label 1"}
{"seq": "AAGCAGUCUCUUGUAGUCAUCGAAGAUGAACGAGGACCGGUACGGCCGCCACUCGGAGUGAUGUUCCGAAGGCUGCAAAAUAAAA [MatMod 18 - Jieux - Exclusion - Tryptophan A]", "assigned.category": "label 1"}
{"seq": "CGAGUGAUGUUCGUUCGUUUAUUUCGGUGACAGGAUAUGCGGAAACGCAGAAGGGUCACCUUUGAGUUACCGGAAUUAACGUUAU [Ex FMN A 29]", "assigned.category": "label 1"}

Please turn your attention to the following entry.
INPUT: Please tell me: is the sequence AAAUGUUUGUAUUUGAACAAUUUCCUUAGAGAGGAUAUUGGUAAUACAAGAAGGCUCUGAUGGGAGUGAUGUUCCCAUAACGCGG [Exclusion FMN A GF14] at or over 300 nM in terms of apparent KD of K4 kissing-loop reporter?
OUTPUT: label 0

###

# Tested on: MS2 coat protein
# assay.info: apparent KD of MS2 coat protein; designed switch direction (-1 OFF switch, 1 ON switch): 1; higher = weaker reporter binding
# experimental.setup: Eterna round: R95; input ligand: FMN 200 uM
Some sequences, each annotated with its measured apparent KD of MS2 coat protein.
// note: answer is a bare numeric in nM

The following sequences have reported results that may help.
{"seq": "AGCGCGGUCUCGCAGGAUAUCCACAUUCCUACAUGAGGAUCACCCAUGUCGCUGCAGGAUAUUAGGGAGAAGGGUGAUGCCGCGG [Quesed] (puzzle: Same State 2)", "tested.on": "MS2 coat protein", "unit.annotation": "nM", "value.reported": 22.7}
{"seq": "AACAAUCUAUCUGAGGAUAUCAUGAAAAAAACAUGAGGAUCACCCAUGUGCAGGAAAACUGCAUAUGAGAAGGCAGAUAGAUUGA [salish99_SS2_r3_001] (puzzle: Same State 2)", "tested.on": "MS2 coat protein", "unit.annotation": "nM", "value.reported": 20.6}
{"seq": "AGGGCCGCGGCACAGGAUAUGCACAGGUUCACAUGAGGAUCACCCAUGUGCUCUAGAUAACUUAAGCAGAAGGGUGUCAUGGUAA [Biarrace] (puzzle: Same State 2)", "tested.on": "MS2 coat protein", "unit.annotation": "nM", "value.reported": 11.2}
{"seq": "AGUCCAGCCUGAGCUGGACUGAAGCAUGUACAUGAGGAUCACCCAUGUUCAUGUGCAGGCUUUUUGCUCGUCUUAUG [JL-shm-2.01 JL mod] (puzzle: Sensor for hsa-mir-208a)", "tested.on": "MS2 coat protein", "unit.annotation": "nM", "value.reported": 84.7}

INPUT: Return the recorded apparent KD of MS2 coat protein value; entry: AGGCAAGCUUUUUGCUGGUAUGAAGGAGAACAUGAGGAUCACCCAUGUAUUAGAGGUGUAGAGGAUUUGAGAAAGAA [JR_SHM208A_Sub003] (puzzle: Sensor for hsa-mir-208a)
OUTPUT: 96.8

###

# Test system: MS2 coat protein
# assay.info: apparent KD of MS2 coat protein; designed switch direction (-1 OFF switch, 1 ON switch): -1; higher = weaker reporter binding
# experimental.setup: input ligand: FMN 200 uM
recorded.metric: apparent KD of MS2 coat protein (µM)
// note: answer is a bare numeric in µM

{"seq": "GUAAACGAUCAGGAUAUAUCAAAUCAUAGCUUGAUAGAAGGGAUCACAUGAGGAUCACCCAUGUGAUCUUCUUA [Mat - Exclusion 6 - JL Mod - D36] (Eterna round: R97, puzzle: Exclusion 6)", "unit.annotation": "µM", "apparent KD of MS2 coat protein": 0.013}

INPUT: Return the recorded apparent KD of MS2 coat protein value; entry: GCGUUUUGGUGAGGAUAUCGGCCCUAAACCGGGCAACAUGAGGAUCACCCAUGUACGUGAUCCUGCGAGAAGGCACCGAUUAUA [Digeerle] (Eterna round: R96, puzzle: Exclusion NG 2)
OUTPUT: 0.122

INPUT: Return the recorded apparent KD of MS2 coat protein value; entry: UUUUUAUAUGAAGGAUAUACUUAACAUGAGGAUCACCCAUGUGGUGUUGUGAGUGAGUGAGUUUAGUAGAAGGUCAACGAUUUU [JMF's solution 58] (Eterna round: R96, puzzle: Exclusion NG 2)
OUTPUT: 0.81

###

# Test system: MS2 coat protein
# assay.info: apparent KD of MS2 coat protein; higher = weaker reporter binding
# experimental.setup: Eterna round: R107; input ligand: theophylline 20 uM
Some sequences, each annotated with its measured apparent KD of MS2 coat protein.
// note: answer is a bare numeric in nM

The following sequences have reported results that may help.
{"seq": "GGACUAACCUGAAGGAGCGACGCGCAGAAACUGCAAUUUCCUCCACACGAGGAUCACCCGUGUCAGGUAGGUCGCAGGUUAGUCG [ArgBX 29]", "tested.on": "MS2 coat protein", "recorded.metric": "apparent KD of MS2 coat protein", "value.reported": 18.3}
{"seq": "AACUGGGUUCGUGAUACCAGCUCACACAUGAGGAUCACCCAUGUAGUGGGUAAAAUGUGGAGCCCUUGGCAGCACUGUGACCACG [Esria]", "tested.on": "MS2 coat protein", "recorded.metric": "apparent KD of MS2 coat protein", "value.reported": 25.4}
{"seq": "ACAUGAGGAUCACCCAUGUUCCUCGCCGAUACCAGUGAAGAAUUACGCCCUUGGCAGCGGAAUGAGUGUUUUGGAGAUGAGGUAC [6.aB]", "tested.on": "MS2 coat protein", "recorded.metric": "apparent KD of MS2 coat protein", "value.reported": 112}
{"seq": "AGAGCAUUGACGGCCGCCACUCGUGUCACAUGAGGAUCACCCAUGUGACGGGUGAUCGCCCGGUUGAGGACCGGGUCAAUGCUCA [Omei Tryp SS B v8]", "tested.on": "MS2 coat protein", "recorded.metric": "apparent KD of MS2 coat protein", "value.reported": 13}
{"seq": "GACGGCUCGACGGCCGCCACUCCCUCCGACUGAAGGCACAGUGGACAUGAGGAUCACCCAUGUCCGAGGACCGGGUCGAUCCUGG [theeternabot_sameState_MS2_Trp_B_32]", "tested.on": "MS2 coat protein", "recorded.metric": "apparent KD of MS2 coat protein", "value.reported": 19.3}

As a next step, examine the sequence that follows.
INPUT: Return the recorded apparent KD of MS2 coat protein value; entry: GGGUAAGAUCCGGAUACCAGCGAACAUGAGGAUCACCCAUGUGAAAUAAGAUAGAAUAAACGCCCUUGGCAGCCGAAAUAGAGUU [Same State Theophylline B GF 3]
OUTPUT: 81.9

###

# System: MS2 coat protein
# assay.info: apparent KD of MS2 coat protein; higher = weaker reporter binding
# experimental.setup: Eterna round: R107; input ligand: arginine 13.2 mM
Some sequences, each annotated with its measured apparent KD of MS2 coat protein.
The number alone won't do; follow it with the unit.

The following sequences have reported results that may help.
{"seq": "AAGAAGUUUUGAUUUUUAUGAAGUAGUGAUACCAGUUAAGAAAGAGACCCUUGGCAGCGCAACAUGAGGAUCACCCAUGUAAGAA [Another radom design]", "apparent KD of MS2 coat protein": "18.9 nM"}
{"seq": "GUCUUGGGAUCGGCCGCCACUACAUGAGGAUCACCCAUGUGGACAAAUAGGGUUUUUAAGCUCGGUAGGACCGGGAUUCGGACAU [Marasosoge]", "apparent KD of MS2 coat protein": "12.9 nM"}
{"seq": "CGAGUGCUGUCGGCCGCCACUGCACAUGAGGAUCACCCAUGUAAAAGCUGGCUGUGACUGGUGUUCAGGACCGGGACAGGGUCUU [Inriedzaan]", "apparent KD of MS2 coat protein": "10.9 nM"}
{"seq": "CCUCGAUUUUGAUACCGAUAUGUCUUUGAUACCAGCGCCAUAGUACGCCCUUGGCAGCAAGAAACAUGAGGAUCACCCAUGUUAA [theeternabot_exclusion_MS2_Theo_A_36]", "apparent KD of MS2 coat protein": "16.9 nM"}
{"seq": "GCUGAACAUGAGGAUCACCCAUGUCCGGAUACCAGCGGACCUCAUCGCCCUUGGCAGCCGAACCAACAGCUUGUGGUGUUCACUC [theeternabot_sameState_MS2_Theo_A_10]", "apparent KD of MS2 coat protein": "32.2 nM"}

INPUT: Return the recorded apparent KD of MS2 coat protein value; entry: GCCGCCGGUGCUUCAUUCCCUGAGCGACGGCGAGGACCGGUACGGCCGCCACUCGGCUCGGUACAUGAGGAUCACCCAUGUCUUU [theeternabot_exclusion_MS2_Trp_A_11]
OUTPUT: 30.7 nM

INPUT: Return the recorded apparent KD of MS2 coat protein value; entry: ACAUGAGGAUCACCCAUGUAAAUAACGGAAGGAGCGUGCAAAAGCACAGGUAGGUCGCCGAUAUAAAUAUUGGGUAUUAUAUUUU [AstrosExyArgA#3]
OUTPUT: 30.4 nM

INPUT: Return the recorded apparent KD of MS2 coat protein value; entry: CGACGAGACCUGGAUACCAGCGACAUGAGGAUCACCCAUGUAUGUGGAUCAGCCAUGAUAUGCCCUUGGCAGCCACCGAGGUCGG [PPPMULLIN]
OUTPUT: 7.81 nM

INPUT: Return the recorded apparent KD of MS2 coat protein value; entry: AAACAUUGCUGCGAUACCAGACAUGAGGAUCACCCAUGUACCAAGGUAAGAAAAUAACAUGUCCCUUGGCAGCGCAGCAAUGAAA [MAT - Exclusion Theophlline B - Mod of Eli - D2]
OUTPUT: 19.2 nM

INPUT: Return the recorded apparent KD of MS2 coat protein value; entry: UGGGAAGGAGGAAGGAGCGCCAUAAGGGUGACAGUCUGGGUACAUGAGGAUCACCCAUGUAGGCAGGUAGGUCGCCUCGCUCUCA [XArg-B15]
OUTPUT: 26.2 nM

INPUT: Return the recorded apparent KD of MS2 coat protein value; entry: CCCUGGGUGGGAAGGAGCGCAUAGUGAACAUGAGGAUCACCCAUGUGCAGACGUGAGUCAUUGCAGGUAGGUCGCCCACCCAGGG [SS-ArgB22]
OUTPUT: 10.2 nM

INPUT: Return the recorded apparent KD of MS2 coat protein value; entry: UAAGCGCGAGGAGACGGAACCAAUCUUGUUCGAGGACCGGUACGGCCGCCACUCGGCGUAAAACAUGAGGAUCACCCAUGUGCAA [theeternabot_exclusion_MS2_Trp_A_18]
OUTPUT: 10.8 nM
